Value source: patent US10323018B2

target: hNAMPT protein (Homo sapiens (Human)); experiment: NAMPT enzyme assay (TR-FRET/HTRF with BodiPY ligand); format: binding; conditions: NAMPT inhibition at compound concentration 1 μM; read-out: Percent Inhibition
Sequence (P43490 whole entry): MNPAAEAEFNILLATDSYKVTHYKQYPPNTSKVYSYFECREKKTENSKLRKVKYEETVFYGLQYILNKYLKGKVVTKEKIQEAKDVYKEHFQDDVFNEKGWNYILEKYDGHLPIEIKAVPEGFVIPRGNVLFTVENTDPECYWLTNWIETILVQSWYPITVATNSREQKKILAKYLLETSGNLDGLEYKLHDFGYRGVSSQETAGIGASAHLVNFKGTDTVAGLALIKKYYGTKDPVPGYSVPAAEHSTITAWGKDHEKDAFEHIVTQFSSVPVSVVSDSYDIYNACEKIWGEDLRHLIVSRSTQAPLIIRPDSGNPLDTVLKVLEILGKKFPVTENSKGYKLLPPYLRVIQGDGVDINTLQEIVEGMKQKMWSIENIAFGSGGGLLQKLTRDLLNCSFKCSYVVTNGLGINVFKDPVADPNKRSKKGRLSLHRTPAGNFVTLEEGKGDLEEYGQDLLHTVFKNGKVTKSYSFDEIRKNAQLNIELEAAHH
measured.quantity: inhibition at 1 µM

Consider the following illustrative entries.
CCOc1cc(-c2ccc(F)cc2OC)nc2cc(C(=O)NCc3ccn4ncnc4c3)ccc12: 100%
CCOc1cc(-c2ccnc(OC)c2)nc2cc(C(=O)NCCc3c[nH]nc3C)ccc12: 92%
CCOc1c(F)c(-c2ccnc(OC)c2)nc2cc(C(=O)NCCCc3[nH]nnc3C)ccc12: 91%
CCOc1cc(-c2ccc(F)cc2)nc2cc(C(=O)NCCc3nn[nH]n3)ccc12: 53%
CCOc1cc(-c2ccc(F)cc2OC)nc2cc(C(=O)NCCCc3cc[nH]n3)ccc12: 96%
COCCOc1cc(-c2ccc(F)cc2)nc2cc(C(=O)NCCCc3n[nH]nc3C)ccc12: 94%
CCOc1cc(-c2cc(F)ccc2OC)nc2cc(C(=O)NCc3nc4cnccc4n3C)ccc12: 95%

Now look at this one.
What the record says about CCOc1cc(-c2cc(OC)ncc2F)nc2cc(C(=O)NCCCc3[nH]nnc3C)ccc12 : inhibition at 1 µM is 92%
